- TESTED_TARGET: recombinant human Bcl-2-G101V protein (Homo sapiens (Human), UniProt P10415, G101V)
- ASSAY_EXPLANATION: Bcl-2-G101V TR-FRET Assay
- Type: binding
- EXPERIMENTAL_CONTEXT: Bcl-2 G101V mutant, TR-FRET; read-out: Biochemical assay (IC50, nM) Bcl-2 G101V
The entries below come with measured IC50 values attached.
Your answer should be a plain number; it is taken to be in nM.

Worked cases, answers included:
- CC(C)c1ccccc1C1CN(Cc2ccc(F)c(F)c2)CCN1C1CC2(CCN(c3ccc(C(=O)NS(=O)(=O)c4ccc(NC[C@H]5CC[C@](C)(O)CC5)c([N+](=O)[O-])c4)c(Oc4cnc5[nH]ccc5c4)c3)CC2)C1 (stereo partly shown): 0.73
- COc1ccc(CN2CCN(C3CC4(CCN(c5ccc(C(=O)NS(=O)(=O)c6ccc(NCC7(F)CCC(C)(O)CC7)c([N+](=O)[O-])c6)c(Oc6cnc7[nH]ccc7c6)c5)CC4)C3)[C@H](c3ccccc3C(C)C)C2)cc1 (stereo partly shown) [Example 226]: 0.64
- CC(C)c1ccccc1C1CN(C(=O)c2ccccc2)CCN1C1CC2(CCN(c3ccc(C(=O)NS(=O)(=O)c4ccc(NC[C@H]5CC[C@](C)(O)CC5)c([N+](=O)[O-])c4)c(Oc4cnc5[nH]ccc5c4)c3)CC2)C1 (stereo partly shown): 1.6

Next up:
**Query** Tell me measured IC50 for `COc1cc(CN2CCN(C3CC4(C3)CN(c3ccc(C(=O)NS(=O)(=O)c5ccc(NC[C@H]6CC[C@](C)(O)CC6)c([N+](=O)[O-])c5)c(Oc5cnc6[nH]cc(F)c6c5)c3)C4)[C@H](c3ccccc3C(C)C)C2)ccc1C1COC1` please.
**Result** 0.38
